B1: FLOT1 (parent)
chain: QMAKKAEAFQLYQEAAQLDMLLEK

# Variants of: B1
# ASSAY TEXT: protein stability index of a GFP-peptide fusion (GPS, HEK-293T) (PSI 1-6); higher = more stable;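 note: lentivirally expressed fusions sorted by FACS into six bins by GFP to DsRed ratio, PSI derived from sequencing read proportions per bin multiplied by bin number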
# CONDITION INFO: c terminus: a fixed tail appended
REPORTED METRIC: protein stability index
Give the figure only, with no unit attached.

Before answering, review these 8 worked examples.
[[record]]
sequence_change = "M2Q"
reported_metric = "protein stability index"
quantitative_readout = 2.01

[[record]]
sequence_change = "K4P"
reported_metric = "protein stability index"
quantitative_readout = 2.3

[[record]]
sequence_change = "E14A"
reported_metric = "protein stability index"
quantitative_readout = 1.3

[[record]]
sequence_change = "E7N"
reported_metric = "protein stability index"
quantitative_readout = 2.05

[[record]]
sequence_change = "M2A"
reported_metric = "protein stability index"
quantitative_readout = 1.46

[[record]]
sequence_change = "F9H"
reported_metric = "protein stability index"
quantitative_readout = 2.26

[[record]]
sequence_change = "L21A"
reported_metric = "protein stability index"
quantitative_readout = 2.09

[[record]]
sequence_change = "K4N"
reported_metric = "protein stability index"
quantitative_readout = 2.38


# input Could you tell me which protein stability index is on file for `L21K` ?
# output 2.19

# input Could you tell me which protein stability index is on file for `A15W` ?
# output 2.68

# input Could you tell me which protein stability index is on file for `A16N` ?
# output 2.45

# input Could you tell me which protein stability index is on file for `Q13K` ?
# output 2.62

# input Could you tell me which protein stability index is on file for `E23K` ?
# output 2.11

# input Could you tell me which protein stability index is on file for `D19T` ?
# output 2.66
